subject_of_test: UniProtKB P00797
protocol_notes: Inhibitory activity against human plasma renin
Assay type: cell-free
pIC50: −log10 of the molar value.
reported_metric: pIC50

a. c1ccc(COCCCOc2ccc([C@H]3CCNC[C@@H]3OCc3ccc4ccc(OCCN5CCOCC5)cc4c3)cc2)cc1 (racemic)
b. O=S(=O)(O)OC[C@@H]1CNC[C@H](OCc2ccc3ccccc3c2)[C@H]1c1ccc(OCCCOCc2ccccc2)cc1 (racemic)
Request: So which one has the bigger pIC50 here, a or b ? Give the label under which the chosen entry appears.
Result: a
(a: 6.89, b: 5.72)

P. c1ccc(COCCCOc2ccc([C@@H]3[C@@H](OCc4ccc5ccccc5c4)CNC[C@H]3OCCN3CCOCC3)cc2)cc1 (racemic)
Q. c1ccc(COCCCOc2ccc([C@H]3CCNC[C@@H]3OCc3ccc4ccccc4c3)cn2)cc1 (racemic)
Request: Please indicate which item has the smaller measured pIC50: P versus Q Give the label under which the chosen entry appears.
Result: Q
(Q: 5.15, P: 6.42)

----------
subject_of_test: Renin (Homo sapiens)
Sequence (P00797 whole entry): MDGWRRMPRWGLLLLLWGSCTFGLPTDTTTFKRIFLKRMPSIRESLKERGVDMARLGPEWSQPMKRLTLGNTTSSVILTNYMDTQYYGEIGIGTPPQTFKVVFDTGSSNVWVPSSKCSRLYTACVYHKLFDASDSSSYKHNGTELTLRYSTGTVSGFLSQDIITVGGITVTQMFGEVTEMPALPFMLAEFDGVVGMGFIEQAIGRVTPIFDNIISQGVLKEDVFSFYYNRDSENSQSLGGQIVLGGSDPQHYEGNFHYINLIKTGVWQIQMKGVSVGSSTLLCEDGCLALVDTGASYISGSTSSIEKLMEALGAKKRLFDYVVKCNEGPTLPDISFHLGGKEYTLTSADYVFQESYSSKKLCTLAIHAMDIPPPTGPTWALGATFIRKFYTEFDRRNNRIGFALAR
protocol_notes: Inhibitory activity against purified recombinant human renin
pIC50: −log10 of the molar value.
reported_metric: pIC50

Here's what some known entries look like.
compound: COc1ccccc1COCCCOc1ncc([C@H]2CCNC[C@@H]2OCc2cc(OC)c3ccccc3c2OC)cn1 (racemic)
subject_of_test: Renin (Homo sapiens)
pIC50: 8.00

compound: c1ccc(COCCCOc2ccc([C@H]3CCNC[C@@H]3OCc3ccc4ccc(OCCN5CCOCC5)cc4c3)cc2)cc1 (racemic)
subject_of_test: Renin (Homo sapiens)
pIC50: 7.92

compound: c1ccc(COCCCOc2ccc([C@H]3[C@H](COCCN4CCOCC4)CNC[C@@H]3OCc3ccc4ccccc4c3)cc2)cc1 (racemic)
subject_of_test: Renin (Homo sapiens)
pIC50: 8.48

compound: COc1ccccc1COCCCOc1ccc([C@H]2CCNC[C@@H]2OCc2ccc3c(c2)NCCC3)cc1 (racemic)
subject_of_test: Renin (Homo sapiens)
pIC50: 9.17

compound: COc1ccccc1COCCCOc1ccc([C@H]2CCNC[C@@H]2OCc2cc(OC)c3ccccc3c2OC)cc1 (racemic)
subject_of_test: Renin (Homo sapiens)
pIC50: 10.06

P. c1ccc(COCCCOc2ccc([C@H]3CCNC[C@@H]3OCc3ccc4cc(OCCN5CCOCC5)ccc4c3)cc2)cc1 (racemic)
Q. c1ccc(COCCCOc2ccc([C@H]3CCNC[C@@H]3OCc3ccc4cccnc4c3)cc2)cc1 (racemic)
Request: So which one has the bigger pIC50 here, P or Q ? Give the label under which the chosen entry appears.
Result: Q

----------
subject_of_test: UniProt P00797
protocol_notes: Inhibitory activity against purified recombinant human renin
reported_metric: IC50 (nM)

P. O[C@H]1CNC[C@H](OCc2ccc3ccccc3c2)[C@H]1c1ccc(OCCCOCc2ccccc2)cc1 (racemic)
Q. O=S(=O)(O)OC[C@@H]1CNC[C@H](OCc2ccc3ccccc3c2)[C@H]1c1ccc(OCCCOCc2ccccc2)cc1 (racemic)
Request: Please indicate which item has the smaller measured IC50: P versus Q Give the label under which the chosen entry appears.
Result: Q
(Q: 2.3 nM, P: 9 nM)

P. COc1ccccc1COCCCOc1ccc([C@H]2CCNC[C@@H]2OCc2ccc3ccc(=O)[nH]c3c2)cc1 (racemic)
Q. c1ccc(COCCCOc2ccc([C@H]3CCNC[C@@H]3OCc3ccc4ccccc4c3)cc2)cc1 (racemic)
Request: So which one has the bigger IC50 here, P or Q ? Give the label under which the chosen entry appears.
Result: P
